- Tested on: Vero E6 infected with SARS-CoV-2
- EXPERIMENT NOTES: morphology score (similarity to uninfected cells); higher = more like uninfected cells
- TEST PARAMETERS: 24 h
# reported morphology score; entries follow

# COMPOUND, morphology score
rows = [
    ("C#Cc1cccc(Nc2ncnc3cc(OCCOC)c(OCCO)cc23)c1 (10 µM)", -0.0889),
    ("CCCCCCN(CCCCCC)C(=O)Cc1c(-c2ccc(F)cc2)[nH]c2ccccc12 (10 µM)", -0.0301),
    ("CCC(Cc1c(I)cc(I)c(N)c1I)C(=O)O (stereo not given) [iopanic-acid] (10 µM)", -0.136),
    ("O=C(Cc1ccc(Cl)c(Cl)c1)N1CCCC[C@@H]1CN1CCCC1 (10 µM)", 0.168),
    ("OC[C@H]1NC[C@@H](O)[C@@H](O)[C@@H]1O [1-deoxymannojirimycin] (10 µM)", -0.0915),
    ("Nc1nc2ccc(OC(F)(F)F)cc2s1 [riluzole] (10 µM)", 0.188),
    ("C[C@]12C/C(=C/O)C(=O)C[C@@H]1CC[C@@H]1[C@@H]2CC[C@@]2(C)[C@H]1CC[C@]2(C)O [Oxymetholone] (10 µM)", -0.162),
    ("Cc1nc2ccccc2c(-c2ccc3c4c(ccnc24)CCO3)c1[C@H](OC(C)(C)C)C(=O)O (10 µM)", 0.0152),
    ("COc1c2occc2c(OC)c2c(=O)cc(C)oc12 [khellin] (10 µM)", -0.102),
    ("CCc1cc(-c2[nH]nc(C)c2-c2ccc3c(c2)OCCO3)c(O)cc1O (0.833333 µM)", 0.075),
    ("O=C(O)c1ccc(-c2ccc3cc(O)c(C45CC6CC(CC(C6)C4)C5)cc3c2)cc1 (10 µM)", -0.0522),
    ("NC[C@H]1O[C@H](O[C@H]2[C@H](O)[C@@H](O[C@H]3O[C@H](CO)[C@@H](O)[C@H](N)[C@H]3O)[C@H](N)C[C@@H]2N)[C@H](N)[C@@H](O)[C@@H]1O [bekanamycin] (10 µM)", 0.0989),
    ("O=C(O)CCCC[C@@H]1CCSS1 [thioctic-acid] (10 µM)", 0.0028),
    ("C=CCSCC1Nc2cc(Cl)c(S(N)(=O)=O)cc2S(=O)(=O)N1 (stereo not given) [althiazide] (10 µM)", -0.00232),
    ("COc1ccc(CCN(C)CCCC(C#N)(c2cc(OC)c(OC)c(OC)c2)C(C)C)cc1OC (stereo not given) [gallopamil] (10 µM)", 0.176),
]

====

- System: Vero E6 infected with SARS-CoV-2
- EXPERIMENT NOTES: inhibition of SARS-CoV-2 cytopathic effect; higher = more antiviral protection, active = above 15
- TEST PARAMETERS: 10000 nM; 48 h
Outcome codes: active, inactive

# COMPOUND, CLASS
records = [
    ("Clc1cccc2c1CN(C1=NCCN1)C2", "inactive"),
    ("O=C(CCCCCCC(=O)Nc1cccnc1)NO [pyroxamide]", "inactive"),
    ("O=C(Nc1nc2cccc(-c3ccc(CN4CCS(=O)(=O)CC4)cc3)n2n1)C1CC1", "inactive"),
    ("Nc1n[nH]c2nc3ccccc3nc12", "inactive"),
    ("Cc1cc(C)nc(NS(=O)(=O)c2ccc(NC(=S)NC(=O)COc3ccc(Br)cc3Cl)cc2)n1", "inactive"),
    ("S=C(S)N1CCCC1 [pyrrolidine-dithiocarbamate]", "active"),
    ("COc1ccccc1CN[C@H]1CCCN[C@H]1c1ccccc1", "inactive"),
    ("Nc1ncc(Cc2ccc(Br)cc2)s1", "inactive"),
    ("COCCOC(=O)C1=C(C)NC(C)=C(C(=O)OC(C)C)C1c1cccc([N+](=O)[O-])c1 (stereo not given)", "inactive"),
    ("CCOc1ccc(C[C@H]2NC(=O)CCSSC[C@@H](C(=O)N3CCC[C@H]3C(=O)N[C@@H](CCCN)C(=O)NCC(N)=O)NC(=O)[C@H](CC(N)=O)NC(=O)[C@H]([C@@H](C)O)NC(=O)[C@H]([C@@H](C)CC)NC2=O)cc1", "inactive"),
    ("CCCCCCCCCCCCCCCC=O", "inactive"),
    ("CNC(=O)c1ccccc1Nc1cc(Nc2ccc(N3CCOCC3)cc2OC)ncc1C(F)(F)F", "inactive"),
    ("CC1(C)[C@@H](OC(=O)CCC(=O)O)CC[C@]2(C)[C@H]3C(=O)C=C4[C@@H]5C[C@@](C)(C(=O)O)CC[C@]5(C)CC[C@@]4(C)[C@]3(C)CC[C@@H]12", "inactive"),
    ("Cn1cc(-c2ccc(S(=O)(=O)n3ccc(/C=C/C(=O)Nc4ccccc4N)c3)cc2)cn1", "inactive"),
    ("c1ccc2c(c1)[I+]c1ccccc1-2", "inactive"),
    ("CS(=O)(=O)Nc1ccc(Cc2noc(-c3ccc4[nH]cc(CCN)c4c3)n2)cc1", "inactive"),
    ("CN(C(=O)c1ccc(F)cc1C(F)(F)F)C1CCN(c2nnc(-c3ccnn3C)c3ccccc23)CC1", "inactive"),
    ("CCOP(=S)(OCC)Oc1cc(C)nc(C(C)C)n1 [dimpylate]", "inactive"),
    ("O=C1C(=O)N(Cc2ccc(Cl)c(Cl)c2)c2ccccc21", "inactive"),
    ("CCC(CC)O[C@@H]1C=C(C(=O)O)C[C@H](N)[C@H]1NC(C)=O [oseltamivir-carboxylate]", "inactive"),
]

The origin of these recorded values is the supplement of paper PMC13380429.
